// data source = the supplement of paper PMC3334620

Target: Yap3 (UniProt P38749)
Sequence: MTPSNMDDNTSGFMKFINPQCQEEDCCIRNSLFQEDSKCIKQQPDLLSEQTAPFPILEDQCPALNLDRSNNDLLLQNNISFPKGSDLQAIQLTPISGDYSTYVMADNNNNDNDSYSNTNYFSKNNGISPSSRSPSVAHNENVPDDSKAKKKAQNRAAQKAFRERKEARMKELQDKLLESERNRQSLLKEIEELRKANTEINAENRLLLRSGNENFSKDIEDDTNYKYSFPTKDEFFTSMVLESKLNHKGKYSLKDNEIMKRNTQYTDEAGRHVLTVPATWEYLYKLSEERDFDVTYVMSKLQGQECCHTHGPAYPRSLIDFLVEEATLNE
Experiment: PBM E-score (8-mer binding enrichment) (E-score (-0.5 to 0.5)); higher = stronger / more preferred TF binding
Settings: protein concentration: 100 nM; construct: GST-full length
In all, about 33,000 sequences were measured (“E-score (-0.5 to 0.5)”: median about -0.0034, highest 2% from about 0.25 on). The list comes from a sample in which the highest values are over-represented; it also holds close analogues and randomly drawn sequences.
OBSERVABLE: PBM E-score
// no unit, no text: just the number

# SEQUENCE_TEXT, ASSAYED_TARGET, READOUT_NUMBER
rows = [
    ("CAACGGAA", "Yap3 (UniProt P38749)", 0.15),
]

Please look at the following sequence next.
Lab entry: Yap3 (UniProt P38749) assay, sequence CTTTTGTC , PBM E-score = 0.0462
